B1: Ankyrin repeat and SOCS box protein 14, residues 532 to 572; numbered along this chain, A6NK59 (parent)
chain: RSLKHLCRLKIRKCMGRLHLRCPVFMSFLPLPNRLKAYVLY

Variants of: B1
Test: abundance fitness (aPCA) (normalised: wild type 0, dead -1); higher = more abundant; growth selection in yeast, the domain comes from the species named
Conditions: Homo sapiens
Consider the following variants; for each one, report its abundance fitness.

Some variants with known abundance fitness results, for comparison:
{"columns": ["Residue codes", "abundance fitness"],
 "data": [
  ["RSLKHLCRLKIRKCQGRLHLRCPVFMSFLPLPNRLKAYVLY", -0.576],
  ["RSLKHLCRLMIRKCMGRLHLRCPVFMSFLPLPNRLKAYVLY", 0.439],
  ["RSLKHLCRLKIRKCMGRLHLRCKVFMSFLPLPNRLKAYVLY", 0.524],
  ["RSLKHLCRLKIRTCMGRLHLRCPVFMSFLPLPNRLKAYVLY", -0.161]
]}

Would you mind giving abundance fitness for every variant in the list below?
1. RSLKLLCRLKIRKCMGRLHLRCPVFMSFLPLPNRLKAYVLY
2. RSLKHLCRLKIRKCMGRLHLRDPVFMSFLPLPNRLKAYVLY
3. RSLKHLCRLKIRKCMGRLHLRLPVFMSFLPLPNRLKAYVLY

[reply]
1: -0.184; 2: -1.02; 3: 0.243

Hello, I would appreciate it if you could give abundance fitness for each entry below.
1. RSLKHLCRLKIRKCMGRLHLRCWVFMSFLPLPNRLKAYVLY
2. RSLKHLCRLKIRKCMGRLHLRCPVVMSFLPLPNRLKAYVLY
3. RSLKHLCRLKIRKCMGVLHLRCPVFMSFLPLPNRLKAYVLY
4. RSLKHLCRLKIRKCMGRLHLRCPMFMSFLPLPNRLKAYVLY
5. RSLKHLCRLKIRKCMGCLHLRCPVFMSFLPLPNRLKAYVLY
6. RSLEHLCRLKIRKCMGRLHLRCPVFMSFLPLPNRLKAYVLY
7. RSLKHLCRLKIRKCMGRLHLRCPVFMSFLPLPNRTKAYVLY
8. RSLKHLCRLKIRKCMGRLHGRCPVFMSFLPLPNRLKAYVLY

[reply]
1: 0.321; 2: 0.033; 3: 0.213; 4: -0.217; 5: 0.153; 6: -0.596; 7: -0.966; 8: -0.089

Need abundance fitness for each of these variants.
1. RSLKHLCRLKIRKCMGRLHLCCPVFMSFLPLPNRLKAYVLY
2. RSLKHLCRLKRRKCMGRLHLRCPVFMSFLPLPNRLKAYVLY
3. RSLKHLCRLKIRKCMGRVHLRCPVFMSFLPLPNRLKAYVLY
4. RSLKHLCRLKIDKCMGRLHLRCPVFMSFLPLPNRLKAYVLY
5. RSLKHLCRLKIRKCMGRLHLRCPVFMSFLPLPNRLKAKVLY

[reply]
[-0.253, -0.956, -0.392, -0.03, -0.485]

Data provenance: the Human Domainome abundance scans (Beltran et al. 2025)
